B1: Mineralocorticoid receptor, residues 600 to 675; numbered along this chain, P08235 (parent)
chain: SKICLVCGDEASGCHYGVVTCGSCKVFFKRAVEGQHNYLCAGRNDCIIDKIRRKNCPACRLQKCLQAGMNLGARKS

- Variants of: B1
- experiment.description: abundance fitness (aPCA) (normalised: wild type 0, dead -1); higher = more abundant; growth selection in yeast, the domain comes from the species named
- condition.set: Homo sapiens
measure.name: abundance fitness

| chain.sequence | abundance fitness |
| --- | --- |
| SKICLVCGDEASGCHYGVVECGSCKVFFKRAVEGQHNYLCAGRNDCIIDKIRRKNCPACRLQKCLQAGMNLGARKS [T20E] | -0.522 |
| SKICLTCGDEASGCHYGVVTCGSCKVFFKRAVEGQHNYLCAGRNDCIIDKIRRKNCPACRLQKCLQAGMNLGARKS [V6T] | -0.148 |
| SKICDVCGDEASGCHYGVVTCGSCKVFFKRAVEGQHNYLCAGRNDCIIDKIRRKNCPACRLQKCLQAGMNLGARKS [L5D] | -0.168 |
| SKICLVCGDEASGCHYGVVTCGSCKVFFKRAVEGQHNYLCAGRNDCIIVKIRRKNCPACRLQKCLQAGMNLGARKS [D49V] | -0.219 |
| SKICLVCGDEASGCHYGVVTCGSMKVFFKRAVEGQHNYLCAGRNDCIIDKIRRKNCPACRLQKCLQAGMNLGARKS [C24M] | -1.04 |
| SKICLVCGDEASGCHYGVVTCGSCKVFFKRAVEGQHNYLCAGRNDCIDDKIRRKNCPACRLQKCLQAGMNLGARKS [I48D] | -0.107 |

Read the next record carefully.
Exam item: # query: abundance fitness of entry SKICLVCGDEASGCHYGVVTCGSCKVFFKRAVEGQHNYLCAGRNDCIIDKIRRKNCPAGRLQKCLQAGMNLGARKS [C59G]
Marked response: -0.917
